# ASSAY SUMMARY: qHTS assay to test for compound auto fluorescence at 590 nm (red) in HepG2 cells (AID 720674)
# COND: HepG2 autofluorescence, red 540/590 nm, 1 h; series mostly up to 91.3 µM
Active and inactive are the calls of the source. Calls follow the shape of the dose curve; as a rule, active = well fitted curve in the direction sought with a large enough effect in the repeat runs; inconclusive = weak or mixed curves; inactive = flat fitted curve, though single readings scatter.

[
  {
    "COMPOUND": "CSc1c(Cl)c(Cl)c(Cl)c(Cl)c1Cl",
    "fluorescence, relative to Rose Bengal": "inactive"
  },
  {
    "COMPOUND": "Cc1c(C(=O)O)cccc1[N+](=O)[O-]",
    "fluorescence, relative to Rose Bengal": "inactive"
  },
  {
    "COMPOUND": "NC(=O)c1ccccc1N",
    "fluorescence, relative to Rose Bengal": "inactive"
  },
  {
    "COMPOUND": "CCN(CC)CCCN(c1ccccc1)C1Cc2ccccc2C1",
    "fluorescence, relative to Rose Bengal": "inactive"
  },
  {
    "COMPOUND": "COc1cccc(CCc2ccccc2OCC(CN(C)C)OC(=O)CCC(=O)O)c1 (stereo not given)",
    "fluorescence, relative to Rose Bengal": "inactive"
  },
  {
    "COMPOUND": "CCCCCCCCCCCCOC(=O)c1cc(O)c(O)c(O)c1",
    "fluorescence, relative to Rose Bengal": "inactive"
  },
  {
    "COMPOUND": "NC1(c2ccc(-c3nc4ccn5c(=O)[nH]nc5c4cc3-c3ccccc3)cc2)CCC1",
    "fluorescence, relative to Rose Bengal": "inactive"
  },
  {
    "COMPOUND": "CC1=C(/C=C/C(C)=C/C=C/C(C)=C\\C=O)C(C)(C)CCC1",
    "fluorescence, relative to Rose Bengal": "inactive"
  },
  {
    "COMPOUND": "CCOC(=O)N1CCC(=C2c3ccc(Cl)cc3CCc3cccnc32)CC1",
    "fluorescence, relative to Rose Bengal": "inactive"
  },
  {
    "COMPOUND": "SCCCCCCCCS",
    "fluorescence, relative to Rose Bengal": "inactive"
  },
  {
    "COMPOUND": "O[C@@H](c1cc(C(F)(F)F)nc2c(C(F)(F)F)cccc12)[C@H]1CCCCN1",
    "fluorescence, relative to Rose Bengal": "inactive"
  },
  {
    "COMPOUND": "NCCCCCCNCCCCCCN",
    "fluorescence, relative to Rose Bengal": "inactive"
  },
  {
    "COMPOUND": "CCC(C)c1cc([N+](=O)[O-])cc([N+](=O)[O-])c1OC(=O)OC(C)C (stereo not given)",
    "fluorescence, relative to Rose Bengal": "inactive"
  },
  {
    "COMPOUND": "O=C1c2c(O)ccc([N+](=O)[O-])c2C(=O)c2c([N+](=O)[O-])ccc(O)c21",
    "fluorescence, relative to Rose Bengal": "inactive"
  },
  {
    "COMPOUND": "Nc1ncnc2c1ncn2[C@@H]1O[C@H](COP(=O)(O)O)[C@@H](O)[C@H]1O",
    "fluorescence, relative to Rose Bengal": "inactive"
  }
]

====

# ASSAY SUMMARY: A CellTox Green Cytotoxicity Assay to monitor cytotoxicity in HEK293 cells - 32 hour (AID 1224881); also: nearly all actives have a fitted effect of over 40% in size
# COND: CellTox Green fluorescence; series mostly up to 76.8 µM
Records with an inconclusive call do not appear. The source made the active and inactive calls. Calls follow the shape of the dose curve; as a rule, active = well fitted activation curve with a large enough effect in the repeat runs; inconclusive = weak or mixed curves; inactive = flat fitted curve, though single readings scatter.
Labels: Y for active, N for inactive

[
  {
    "COMPOUND": "C/C=C/C(=O)C1=C(C)CCCC1(C)C",
    "CLASS LABEL": "N"
  },
  {
    "COMPOUND": "CCCCCCC(C)Nc1ccc(Nc2ccccc2)cc1 (centres undefined)",
    "CLASS LABEL": "N"
  },
  {
    "COMPOUND": "COCC(=O)O[C@]1(CCN(C)CCCc2nc3ccccc3[nH]2)CCc2cc(F)ccc2[C@@H]1C(C)C",
    "CLASS LABEL": "Y"
  },
  {
    "COMPOUND": "CCc1cccc(CC)c1NC(=O)C(=O)O",
    "CLASS LABEL": "N"
  },
  {
    "COMPOUND": "COc1cccc(OC)c1O",
    "CLASS LABEL": "N"
  },
  {
    "COMPOUND": "Cc1c(C(=O)O)cccc1[N+](=O)[O-]",
    "CLASS LABEL": "N"
  },
  {
    "COMPOUND": "CO[Si](CCC1CCC2OC2C1)(OC)OC (centres undefined)",
    "CLASS LABEL": "N"
  },
  {
    "COMPOUND": "O=C1OC(OC(=O)c2cccnc2Nc2cccc(C(F)(F)F)c2)c2ccccc21 (centres undefined)",
    "CLASS LABEL": "N"
  },
  {
    "COMPOUND": "CC1CCCNC1 (centres undefined)",
    "CLASS LABEL": "N"
  },
  {
    "COMPOUND": "COc1ccccc1C=O",
    "CLASS LABEL": "N"
  },
  {
    "COMPOUND": "CCN=C1C=CC(=C(c2ccc(N(CC)CC)cc2)c2ccc(N(CC)CC)cc2)c2ccccc21",
    "CLASS LABEL": "Y"
  },
  {
    "COMPOUND": "C/C=C/C(=O)Oc1c(CCCCCC(C)C)cc([N+](=O)[O-])cc1[N+](=O)[O-]",
    "CLASS LABEL": "Y"
  },
  {
    "COMPOUND": "CCCCCCCC(C)=O",
    "CLASS LABEL": "N"
  },
  {
    "COMPOUND": "N#CSCSc1nc2ccccc2s1",
    "CLASS LABEL": "Y"
  },
  {
    "COMPOUND": "O=Cc1ccc(F)cc1",
    "CLASS LABEL": "N"
  },
  {
    "COMPOUND": "Cc1ccc(O)cn1",
    "CLASS LABEL": "N"
  },
  {
    "COMPOUND": "CC(C(O)c1ccccc1)N(C)CCOC(c1ccccc1)c1ccccc1 (centres undefined)",
    "CLASS LABEL": "Y"
  },
  {
    "COMPOUND": "Clc1nc2ccccc2s1",
    "CLASS LABEL": "N"
  },
  {
    "COMPOUND": "CCCCCCCCC(C)=O",
    "CLASS LABEL": "N"
  },
  {
    "COMPOUND": "CCc1c(C(=O)O)c(=O)cnn1-c1ccc(Cl)cc1",
    "CLASS LABEL": "N"
  },
  {
    "COMPOUND": "COc1nccnc1CC(C)C",
    "CLASS LABEL": "N"
  },
  {
    "COMPOUND": "CCOC(=O)COc1ccc(C)cc1",
    "CLASS LABEL": "N"
  },
  {
    "COMPOUND": "CN(C)CCOC(c1ccccc1)c1ccccc1 (tested in a mixture with another compound)",
    "CLASS LABEL": "N"
  },
  {
    "COMPOUND": "Nc1cc(Cl)c([N+](=O)[O-])cc1O",
    "CLASS LABEL": "N"
  },
  {
    "COMPOUND": "Cc1cnccn1",
    "CLASS LABEL": "N"
  },
  {
    "COMPOUND": "CCc1ccc(O)c(C(C)(C)C)c1",
    "CLASS LABEL": "Y"
  },
  {
    "COMPOUND": "C=CC(C)C#N (centres undefined)",
    "CLASS LABEL": "N"
  },
  {
    "COMPOUND": "CC(C)=CC1CC(C)CCO1 (centres undefined)",
    "CLASS LABEL": "N"
  },
  {
    "COMPOUND": "COc1cccc(O)c1",
    "CLASS LABEL": "N"
  },
  {
    "COMPOUND": "NCCCC(O)(P(=O)(O)O)P(=O)(O)O",
    "CLASS LABEL": "N"
  },
  {
    "COMPOUND": "c1cc2c3c(c1)ccc1cccc(c13)C2",
    "CLASS LABEL": "Y"
  },
  {
    "COMPOUND": "CC(C)(C)c1cc(CCC(=O)NCCCCCCNC(=O)CCc2cc(C(C)(C)C)c(O)c(C(C)(C)C)c2)cc(C(C)(C)C)c1O",
    "CLASS LABEL": "N"
  },
  {
    "COMPOUND": "O=S(=O)(O)CCCN1CCOCC1",
    "CLASS LABEL": "N"
  },
  {
    "COMPOUND": "CC1=C(/C=C/C(C)=C/C=C/C(C)=C/C(=O)Nc2ccc(O)cc2)C(C)(C)CCC1",
    "CLASS LABEL": "N"
  }
]
